Measured koff, listed per entry for reference.
TARGET_ENTITY: T1, TIGIT (T cell immunoreceptor with Ig and ITIM domains) (human, UniProt Q495A1 22-141, limits assumed)
T1 construct: also called hTIGIT; human TIGIT
T1 sequence (looked up): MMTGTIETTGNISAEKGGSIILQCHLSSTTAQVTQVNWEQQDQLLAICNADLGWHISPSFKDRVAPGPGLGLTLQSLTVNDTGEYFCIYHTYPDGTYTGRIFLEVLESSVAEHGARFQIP
PROTOCOL_NOTES: SPR kinetics
Expressed in s⁻¹, but write only the number.

TIGIT-211-93 (antibody, V domains shown) VH: EVQLLESGGGLVQPGGSLRLSCAASGFTFSRYFMGWVRQAPGKGLEWVSEISPSGKKKYYADSVKGRFTISRDNSKNTLYLQMNSLRAEDTAVYYCAKSSFDKYNFDYWGQGTLVTVSS VL: DIQMTQSPSSLSASVGDRVTITCSASQDINKYLNWYQQKPGKAPKLLIYHTSRLQSGVPSRFSGSGSGTDFTLTISSLQPEDFATYYCQQFAYFPATFGQGTKVEIK = 0.0281
TIGIT-211-98 (antibody, V domains shown) VH: EVQLLESGGGLVQPGGSLRLSCAASGFTFETYAMSWVRQAPGKGLEWVSVISGSGGRPNYADSVKGRFTISRDNSKNTLYLQMNSLRAEDTAVYYCAREGLWAFDYWGQGTLVTVSS VL: DIQMTQSPSSLSASVGDRVTITCRASHFIGSLLSWYQQKPGKAPKLLIYETSKLASGVPSRFSGSGSGTDFTLTISSLQPEDFATYYCQQSYSYPRTFGQGTKVEIK = 0.098
TIGIT-211-13 (antibody, V domains shown) VH: EVQLLESGGGLVQPGGSLRLSCAASGFTFNKYPMMWVRQAPGKGLEWVSYISSSGSSTYYADSVKGRFTISRDNSKNTLYLQMNSLRAEDTAVYYCARVIAAAGAFDYWGQGTLVTVSS VL: DIQMTQSPSSLSASVGDRVTITCRASQSIREYLHWYQQKPGKAPKLLIYFGSELRKGVPSRFSGSGSGTDFTLTISSLQPEDFATYYCGQGVLWPATFGQGTKVEIK = 0.326

Please turn your attention to the following entry.
IN: // fetch koff given entry TIGIT-211-15 (antibody, V domains shown) VH: EVQLLESGGGLVQPGGSLRLSCAASGFTFSSAAMSWVRQAPGKGLEWVSGISPSGGITTYADSVKGRFTISRDNSKNTLYLQMNSLRAEDTAVYYCASLSRGYWGQGTLVTVSS VL: DIQMTQSPSSLSASVGDRVTITCQSSQSVYSNNELSWYQQKPGKAPKLLIYGTSYRYSGVPSRFSGSGSGTDFTLTISSLQPEDFATYYCSSWAGSRSGTVFGQGTKVEIK
OUT: 0.00712
